- TESTED TARGET: EGFR L858R/C797S (Homo sapiens, UniProt P00533, C797S/L858R)
- Sequence (P00533 25-1210 C797S/L858R): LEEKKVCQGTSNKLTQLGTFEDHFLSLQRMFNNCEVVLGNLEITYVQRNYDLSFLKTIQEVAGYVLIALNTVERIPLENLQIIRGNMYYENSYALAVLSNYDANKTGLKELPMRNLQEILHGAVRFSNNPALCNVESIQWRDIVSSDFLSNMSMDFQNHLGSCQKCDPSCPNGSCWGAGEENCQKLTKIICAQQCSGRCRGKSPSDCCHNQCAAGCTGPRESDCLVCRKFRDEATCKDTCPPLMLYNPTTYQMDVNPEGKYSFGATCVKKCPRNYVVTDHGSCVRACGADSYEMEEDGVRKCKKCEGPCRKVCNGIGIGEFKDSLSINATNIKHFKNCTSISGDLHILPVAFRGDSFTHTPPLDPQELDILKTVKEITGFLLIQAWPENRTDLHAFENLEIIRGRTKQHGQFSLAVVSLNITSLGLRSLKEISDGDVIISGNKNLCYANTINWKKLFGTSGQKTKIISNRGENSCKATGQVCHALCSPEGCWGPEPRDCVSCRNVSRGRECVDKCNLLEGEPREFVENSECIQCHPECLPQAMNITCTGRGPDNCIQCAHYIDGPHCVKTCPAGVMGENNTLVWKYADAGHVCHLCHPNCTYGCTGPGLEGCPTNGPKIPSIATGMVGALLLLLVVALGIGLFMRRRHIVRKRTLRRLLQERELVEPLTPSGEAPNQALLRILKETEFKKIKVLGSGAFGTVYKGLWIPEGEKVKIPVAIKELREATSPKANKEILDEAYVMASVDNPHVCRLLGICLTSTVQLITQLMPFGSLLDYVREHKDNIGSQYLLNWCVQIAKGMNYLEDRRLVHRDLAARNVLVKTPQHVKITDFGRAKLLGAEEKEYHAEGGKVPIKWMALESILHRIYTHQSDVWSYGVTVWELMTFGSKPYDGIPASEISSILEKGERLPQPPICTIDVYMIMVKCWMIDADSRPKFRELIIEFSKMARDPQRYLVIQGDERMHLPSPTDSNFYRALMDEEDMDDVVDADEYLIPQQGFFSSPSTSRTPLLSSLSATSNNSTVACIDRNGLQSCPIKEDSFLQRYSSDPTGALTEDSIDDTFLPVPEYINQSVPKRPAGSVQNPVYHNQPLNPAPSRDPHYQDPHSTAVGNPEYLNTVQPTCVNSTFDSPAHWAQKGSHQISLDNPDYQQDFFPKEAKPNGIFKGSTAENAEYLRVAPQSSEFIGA
- ASSAY INFO: Biochemical EGFR kinase assay (Lance Ultra TR-FRET), double mutant L858R/C797S
- CONDITIONS: IC50 L858R/C797S, 100 μM ATP
- Method: Biochemical EGFR kinase assays were conducted using Lance Ultra time-resolved fluorescence resonance energy transfer (TR-FRET) technology from Perkin-Elmer. […] Each kinase reactions were incubated at room temperature for 1 hour and then stopped by the addition of 4 μL of stop solution (10 mM EDTA). […] After 60 minutes incubation at room temperature the LANCE signal was measured on an EnVision Multilabel Reader (Perkin-Elmer). […]
Give measured log10 IC50 for each item. Keep answers brief.
Scale: decimal log of IC50, IC50 in nM.

Asked: Query: log10 IC50; subject: CN1CCN(S(=O)(=O)c2ccc(-c3cnc(Nc4ccnc(-c5cnn(S(=O)(=O)C6CC6)c5)n4)cc3N[C@H]3CC[C@@](C)(O)CC3)nc2)CC1 [Example 188]
Given back: 1.05

Asked: Query (molecule): C[C@]1(O)CC[C@@H](Nc2cc(Nc3ccnc(-c4cnn(S(=O)(=O)C5CC5)c4)n3)ncc2-c2ccc(C(=O)N3CCOCC3)cn2)CC1 [Example 284] ; field requested: log10 IC50
Given back: -0.40

Asked: Any idea what log10 IC50 was measured for O=S(=O)(C1CC1)n1cc(-c2nccc(Nc3cc(NC4CCC(CO)CC4)c(-c4ccc(C(O)C(F)(F)F)cn4)cn3)n2)cn1 (centres unmarked) [Example 227] ?
Given back: 1.00

Asked: Quick one: log10 IC50 for CN(C)C[C@H]1CC[C@@H](Nc2cc(Nc3ccnc(-c4cnn(S(=O)(=O)C5CC5)c4)n3)ncc2-c2ccc(C(C)(C)O)cn2)CC1 [Example 171] ?
Given back: -0.52

Asked: Quick check: log10 IC50 of CN(C)C[C@H]1CC[C@@H](Nc2cc(Nc3ccnc(-c4cnn(S(=O)(=O)C5CC5)c4)n3)ncc2-c2ccc(CC(F)(F)F)cn2)CC1 [Example 221] ?
Given back: 0.76

Asked: Param item = CN(C)CCOc1ccc(-c2cnc(Nc3ccnc(-c4cnn(S(=O)(=O)C5CC5)c4)n3)cc2N[C@H]2CC[C@@H](C(C)(C)O)CC2)nc1 [Example 210] ; retrieve measured log10 IC50.
Given back: 0.26

Asked: Would you kindly share the measured log10 IC50 for CC(C)(O)[C@H]1CC[C@@H](Nc2cc(Nc3ccnc(-c4cnn(S(=O)(=O)C5CC5)c4)n3)ncc2-c2cc(NC3CC(F)(F)C3)ccn2)CC1 [Example 215] ?
Given back: 1.67

Asked: GET /values?readout=log10 IC50&item= CN(C)C[C@H]1CC[C@@H](Nc2cc(Nc3ccnc(-c4cnn(S(=O)(=O)C5CC5)c4)n3)ncc2-c2cccc(CC(F)(F)F)n2)CC1 [Example 248]
Given back: 0.99

* * *

- TESTED TARGET: EGFR del19/T790M/C797S (Homo sapiens, UniProt P00533, C797S/DEL746-750/T790M)
- Sequence (P00533 with tags, fused parts or gaps DEL746-750/T790M/C797S): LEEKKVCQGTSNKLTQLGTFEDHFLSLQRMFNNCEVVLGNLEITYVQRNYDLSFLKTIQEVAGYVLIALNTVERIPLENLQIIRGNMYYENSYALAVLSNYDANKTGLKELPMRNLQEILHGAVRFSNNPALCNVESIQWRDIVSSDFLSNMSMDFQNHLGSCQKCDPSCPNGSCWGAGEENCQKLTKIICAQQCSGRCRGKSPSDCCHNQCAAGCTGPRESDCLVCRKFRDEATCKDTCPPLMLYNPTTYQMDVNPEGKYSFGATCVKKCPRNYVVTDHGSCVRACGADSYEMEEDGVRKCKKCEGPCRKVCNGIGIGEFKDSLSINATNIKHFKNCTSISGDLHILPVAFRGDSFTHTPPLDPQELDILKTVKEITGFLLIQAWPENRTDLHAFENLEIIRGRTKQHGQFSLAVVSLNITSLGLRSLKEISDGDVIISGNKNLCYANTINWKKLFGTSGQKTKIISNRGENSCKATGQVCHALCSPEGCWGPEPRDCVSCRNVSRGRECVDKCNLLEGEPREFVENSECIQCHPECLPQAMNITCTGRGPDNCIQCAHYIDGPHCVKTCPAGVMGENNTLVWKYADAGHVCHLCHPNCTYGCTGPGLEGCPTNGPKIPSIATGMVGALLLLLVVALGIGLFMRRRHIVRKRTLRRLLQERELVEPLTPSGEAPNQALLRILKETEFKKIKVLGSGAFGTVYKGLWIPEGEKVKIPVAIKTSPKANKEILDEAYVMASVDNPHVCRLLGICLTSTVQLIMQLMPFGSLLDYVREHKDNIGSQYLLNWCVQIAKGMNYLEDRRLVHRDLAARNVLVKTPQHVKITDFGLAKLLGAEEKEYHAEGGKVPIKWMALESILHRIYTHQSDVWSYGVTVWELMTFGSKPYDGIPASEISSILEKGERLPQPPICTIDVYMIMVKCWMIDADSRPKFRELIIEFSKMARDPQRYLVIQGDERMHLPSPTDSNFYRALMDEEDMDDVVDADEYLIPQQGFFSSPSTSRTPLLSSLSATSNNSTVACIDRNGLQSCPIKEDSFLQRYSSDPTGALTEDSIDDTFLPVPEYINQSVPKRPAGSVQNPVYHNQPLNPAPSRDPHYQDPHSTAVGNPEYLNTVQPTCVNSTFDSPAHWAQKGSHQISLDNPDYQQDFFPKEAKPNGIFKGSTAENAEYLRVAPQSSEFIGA
- ASSAY INFO: Biochemical EGFR kinase assay (Lance Ultra TR-FRET), triple mutant del19/T790M/C797S
- CONDITIONS: Km ATP; read-out: IC50 del19/T790M/C797S (nM) Km ATP
- Protocol: Biochemical EGFR kinase assays were conducted using Lance Ultra time-resolved fluorescence resonance energy transfer (TR-FRET) technology from Perkin-Elmer. […] Each kinase reactions were incubated at room temperature for 1 hour and then stopped by the addition of 4 μL of stop solution (10 mM EDTA). […] After 60 minutes incubation at room temperature the LANCE signal was measured on an EnVision Multilabel Reader (Perkin-Elmer). […]
Answer each item with its documented IC50.
Answer with a number only, understood to be in nM.

Asked: Give the measured IC50 of `C[C@]1(O)CC[C@@H](Nc2cc(Nc3ccnc(-c4cnn(S(=O)(=O)C5CC5)c4)n3)ncc2-c2ccc(CN3CCC(F)(F)CC3)cn2)CC1` .
Given back: 2.6

Asked: For CC1(O)CCC(Nc2cc(Nc3ccnc(-c4cnn(S(=O)(=O)C5CC5)c4)n3)ncc2-c2cnc(OC3CCOC3)cn2)CC1 (stereo not shown) , what is its reported IC50?
Given back: 0.4

Asked: Request the reported IC50 associated with `C[C@]1(O)CC[C@@H](Nc2cc(Nc3ccnc(-c4cnn(S(=O)(=O)C5CC5)c4)n3)ncc2-c2ccc(N3CCOCC3)nn2)CC1`
Given back: 0.1

Asked: // lookup IC50 for `FC(F)Cn1cc(-c2nccc(Nc3cc(N[C@H]4CC[C@@H](F)CC4)c(-c4ccc(CN5CCOCC5)cn4)cn3)n2)cn1`
Given back: 0.5

Asked: Any idea what its IC50 is? The compound is `CC(C)(O)[C@H]1CC[C@@H](Nc2cc(Nc3ccnc(-c4cnn(S(=O)(=O)C5CC5)c4)n3)ncc2-c2cc(CN3CCC(F)(F)CC3)ccn2)CC1`
Given back: 8.5

Asked: # get_value(readout='IC50', item= `C[C@]1(O)CC[C@@H](Nc2cc(Nc3ccnc(-c4cnn(S(=O)(=O)C5CC5)c4)n3)ncc2-c2ccc(C#N)cn2)CC1` )
Given back: 0.4

Asked: Requested read-out: IC50. Entry: `O=S(=O)(C1CC1)n1cc(-c2nccc(Nc3cc(N[C@H]4CC[C@@H](CO)CC4)c(-c4cnc(OC(F)F)cn4)cn3)n2)cn1`
Given back: 1.4
